- Tested on: Trypanosoma brucei
- assay: Trypanosoma brucei 72 hour study
- Type: functional, organism-based
- Set-up: scale not given: in the data most compounds retested in dose-response had high values
- reported_conditions: 30.3 µM; […]
About 960 (1.5%) of roughly 66,000 compounds showed an effect of 50% or more. Shown is part of a subset that was picked to be rich in strong results.
experimental_endpoint: Percent Effect (%)

>>> reported_measurement("COc1cc(CNC(C)Cn2cccn2)cc2c1OCO2.Cl (centres undefined)")
-1.111
>>> reported_measurement("COc1cc(CNCC(O)c2ccc(C)cc2)cc2c1OCO2.Cl (centres undefined)")
100.7
>>> reported_measurement("OCC1N(Cc2ccco2)[C@H]2CC[C@]1(O)CC2 (some centres undefined)")
-9.73
>>> reported_measurement("CCCN1C(=O)CC2(CCCNC2)C1=O.Cl (centres undefined)")
-8.6
>>> reported_measurement("Cc1cccc(CN2C(=O)C[C@H]3[C@@H]2CCN3CC2CC2)n1.O=C(O)C(F)(F)F.O=C(O)C(F)(F)F")
9.244
>>> reported_measurement("COc1cc(CNCC(O)c2cccc(F)c2)cc2c1OCO2.Cl (centres undefined)")
81.63
>>> reported_measurement("O=C(O)C(F)(F)F.O=C(O)C(F)(F)F.c1ccc(N2CC[C@@H]3CN(Cc4ccncc4)CCO[C@@H]3C2)cc1")
99.05
>>> reported_measurement("O=C(O)C(F)(F)F.O=C(O)C(F)(F)F.c1cnc(N2CC[C@@H]3CN(Cc4ccncc4)CCO[C@@H]3C2)nc1")
-15.11
>>> reported_measurement("O=C(O)C(F)(F)F.O=C(O)C(F)(F)F.c1cnc(N2CCN3C[C@H](Oc4cncnc4)C[C@H]3C2)nc1")
-14.25

* * *

- System: Trypanosoma brucei
- assay: Trypanosoma brucei 72 hour study
- Type: functional, organism-based
- Design: scale not given: in the data most compounds retested in dose-response had high values
- reported_conditions: 30 µM; 30.03 µM
In all, about 66,000 compounds went through this assay and about 960 (1.5%) showed an effect of 50% or more. What follows is part of a selection rich in strong results, with near analogues and random picks from the rest.
Item-by-item account of Percent Effect
experimental_endpoint: Percent Effect

>>> reported_measurement("O=C(Cc1csc(-c2ncccn2)n1)N1CCN2CCCCC2C1 (stereo unspecified)")
"-4.944%"
>>> reported_measurement("O=C(c1ccc2c(c1)COC2)N1CCC(Nc2ccccc2)CC1")
"15.22%"
>>> reported_measurement("COC(=O)c1ccc(C2SCC(=O)Nc3c2cnn3C2CCCC2)cc1 (stereo unspecified)")
"9.206%"
>>> reported_measurement("O=C(c1cnn2c1OCCC2)N1CCC2(CC1)OCCO2")
"55.16%"
>>> reported_measurement("O=C(c1ccccc1-n1cnnn1)N1CCC2(CC1)OCCO2")
"-25.19%"
>>> reported_measurement("O=C(Cc1ccc(-n2cccn2)cc1)N1CCN2CCCCC2C1 (stereo unspecified)")
"56.58%"
>>> reported_measurement("Cc1noc(C)c1CN1CC[C@H]2OCC[C@@]2(C(=O)N2CCCC2)C1.O=C(O)C(F)(F)F")
"-22.78%"
>>> reported_measurement("O=C1CSC(c2cccs2)c2cnn(C3CCCC3)c2N1 (stereo unspecified)")
"106.7%"
>>> reported_measurement("C[C@H]1C[C@H]2CN(Cc3ccccn3)CC[C@@H]2O1.O=C(O)C(F)(F)F.O=C(O)C(F)(F)F")
"-2.942%"
>>> reported_measurement("COCCCNc1c(C#N)c2c(c3nncn13)CN(C)CC2.Cl")
"-37.83%"
>>> reported_measurement("Cc1cccc(CN2CCC[C@@H]3CN(C(=O)c4ccco4)C[C@@H]32)n1.O=C(O)C(F)(F)F")
"-18.06%"

* * *

- Test system: Trypanosoma brucei
- assay: Trypanosoma brucei 72 hour study
- Type: functional, organism-based
- Parameters: scale not given: in the data most compounds retested in dose-response had high values
- reported_conditions: 30 µM; 30.03 µM
Hit rate of the full screen: of about 66,000 compounds, about 960 (1.5%) showed an effect of 50% or more. The entries come from a sample that favours strong results as a whole.
Item-by-item account of Percent Effect
experimental_endpoint: Percent Effect (%)

>>> reported_measurement("CC(Cc1cccc(F)c1)NCc1cnc(N2CCN(C)CC2)nc1 (stereo not given)")
94.94
>>> reported_measurement("COc1ccc(CN2C[C@@H]3OCCN(c4ncccn4)[C@@H]3C2)cc1.O=C(O)C(F)(F)F.O=C(O)C(F)(F)F")
-40.73
>>> reported_measurement("CC(N)Cc1ccccc1Sc1ccc(O)cc1.CC(N)Cc1ccccc1Sc1ccc(O)cc1.O=C(O)C(=O)O (stereo not given)")
73.02
>>> reported_measurement("COc1cc(CNCC(O)c2ccc(C)cc2)cc2c1OCCO2.Cl (stereo not given)")
42.56
>>> reported_measurement("c1cnc(N2CCCC3(CCN(Cc4ccsc4)C3)C2)nc1 (stereo not given)")
44.57
>>> reported_measurement("Cc1cc(CC(C)NC2CCN(CC(C)C)CC2)[nH]n1 (stereo not given)")
11.44
>>> reported_measurement("CC(C)CN1CCC2(C1)CN(c1ncccn1)C2.O=C(O)C(F)(F)F")
-1.682
>>> reported_measurement("CC(C)c1nc(CC(=O)N2CCN(C)CC2c2ccccc2)cs1 (stereo not given)")
-91.57
>>> reported_measurement("O=C(O)C(F)(F)F.O=C(O)C(F)(F)F.c1cncc(O[C@H]2CC[C@H]3[C@H]2OCCN3C2CCCC2)c1")
-21.55
>>> reported_measurement("CNC(C)Cc1ccccc1Sc1ccc(O)cc1.Cl (stereo not given)")
-13.84

* * *

- System: Trypanosoma brucei
- assay: Trypanosoma brucei 72 hour study
- Format: functional, organism-based
- Design: scale not given: in the data most compounds retested in dose-response had high values
- reported_conditions: 30.3 µM; […]
Hit rate of the full screen: of about 66,000 compounds, about 960 (1.5%) showed an effect of 50% or more. This is one part of a sample in which strong results are shown more often than they occur.
Item-by-item account of Percent Effect
experimental_endpoint: Percent Effect (%)

>>> reported_measurement("CN(C)CCN1CCN(Cc2cccs2)Cc2cccnc21.O=C(O)C(F)(F)F.O=C(O)C(F)(F)F.O=C(O)C(F)(F)F")
-59.56
>>> reported_measurement("COc1ccc(CCNCc2c(C)nn(C)c2N(C)C)cc1OC.Cl")
-31.69
>>> reported_measurement("Cc1cccc(CN2CC[C@H]3OCC[C@@]3(C(=O)N3CCCO3)C2)n1.O=C(O)C(F)(F)F.O=C(O)C(F)(F)F")
-52.48
>>> reported_measurement("Cc1cccc(-c2ncc(CNC(C)Cc3ccncc3)cn2)c1 (stereo unspecified)")
-157.2
>>> reported_measurement("O=C(O)C(F)(F)F.O=S(=O)(C1CC1)N1CCOC2(CCCN(Cc3ccccn3)C2)C1 (stereo unspecified)")
-44.45
>>> reported_measurement("COCCN1CC[C@]2(CN(Cc3cccnc3)C[C@H]2C)C1=O.O=C(O)C(F)(F)F.O=C(O)C(F)(F)F")
-47.24

* * *

- System: Trypanosoma brucei
- assay: Trypanosoma brucei 72 hour study
- Format: functional, organism-based
- Parameters: scale not given: in the data most compounds retested in dose-response had high values
- reported_conditions: 30.3 µM; […]
Out of some 66,000 compounds screened, about 960 (1.5%) showed an effect of 50% or more. The sample holds strong results, similar compounds and a random draw of the others, so the mix is not that of the screen.
experimental_endpoint: Percent Effect (%)

>>> reported_measurement("O=C(C[C@@H]1COC[C@H]2CN(C3CCC3)C[C@@H]12)NCc1cccnc1.O=C(O)C(F)(F)F.O=C(O)C(F)(F)F")
12.19
>>> reported_measurement("Cl.Cl.c1cncc(COC[C@@H]2CCC[C@@]23CNCCO3)c1")
-44.98
>>> reported_measurement("CN1CC2(CCNCC2)CC1C(=O)NCCCNc1cccnc1 (stereo not given)")
-6.231
>>> reported_measurement("c1ccc(CO[C@H]2C[C@@H]3CN(Cc4cncnc4)C[C@@H]3C2)cc1")
-7.208
>>> reported_measurement("Cl.Cl.c1ccc(COC[C@H]2CCC[C@@]23CNCCO3)nc1")
-51.33
>>> reported_measurement("Cc1cc(CN2C[C@@H]3COC[C@H](C(=O)N4CCCCO4)[C@@H]3C2)no1.O=C(O)C(F)(F)F")
-104.8
>>> reported_measurement("CCC1CNCc2cc3c(C)ccc(C)c3nc2O1 (stereo not given)")
58.28
>>> reported_measurement("O=C(O)C(F)(F)F.c1cncc(CN2C[C@H]3CCC[C@@H](CNc4cnccn4)[C@H]3C2)c1")
-2.256
>>> reported_measurement("CN(C)Cc1cncc2c1CCN(C1CCOCC1)C2.Cl.Cl.Cl")
-35.22
>>> reported_measurement("CCC1CNCc2cc3c(OC)ccc(OC)c3nc2O1 (stereo not given)")
8.287
>>> reported_measurement("O=C(Cc1ccccc1)N1CCC2(CCN2Cc2ccc(F)cc2)C1.O=C(O)C(F)(F)F (stereo not given)")
10.12
>>> reported_measurement("Cc1noc(C)c1CN1C[C@@H]2COC[C@@H](C(=O)N3CCCO3)[C@@H]2C1")
79.91
>>> reported_measurement("CN(C)[C@@H]1CN(C(=O)Cc2cccs2)[C@@H]2CCCO[C@H]12.O=C(O)C(F)(F)F")
-91.09
>>> reported_measurement("Cc1ccc2c(c1)C(NC(C)C)CC21CCNCC1.Cl (stereo not given)")
-30.38
>>> reported_measurement("Cc1ccc2c(c1)C1(CCNCC1)CC2NC1CC1.Cl.Cl (stereo not given)")
15.24
>>> reported_measurement("Cc1ncc(CN2C[C@H]3C[C@H](OCc4ccccc4)C[C@H]3C2)cn1")
6.96
>>> reported_measurement("COc1cc(CNC(C)Cn2ccnc2)cc2c1OCCO2 (stereo not given)")
-9.51
>>> reported_measurement("CC(C)N(C)Cc1cncc2c1CCN(CC(=O)N(C)C)C2.Cl.Cl.Cl")
7.599
>>> reported_measurement("CN1C[C@H](NC(=O)c2cscn2)[C@@H]2OCCC[C@@H]21.O=C(O)C(F)(F)F")
-88.97
>>> reported_measurement("CN(C)CCN1CCN(Cc2nccs2)Cc2cccnc21.O=C(O)C(F)(F)F.O=C(O)C(F)(F)F.O=C(O)C(F)(F)F")
-78.15

// provenance: ChEMBL document CHEMBL3988442
